TEST SYSTEM: human NKp46 (full length, on cells) (human, UniProt O76036 22-304)
Sequence (O76036 22-304 Q82K): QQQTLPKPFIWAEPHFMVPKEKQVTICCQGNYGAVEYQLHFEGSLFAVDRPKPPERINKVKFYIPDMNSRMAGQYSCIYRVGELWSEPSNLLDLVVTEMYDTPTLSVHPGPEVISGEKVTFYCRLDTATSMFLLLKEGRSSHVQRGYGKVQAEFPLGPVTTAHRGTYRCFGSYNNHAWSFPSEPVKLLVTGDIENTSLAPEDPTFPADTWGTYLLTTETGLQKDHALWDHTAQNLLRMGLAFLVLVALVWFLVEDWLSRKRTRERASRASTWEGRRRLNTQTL
ASSAY EXPLANATION: cell-based or functional assay
Entries and their measured EC50 of NK cell activation (CD107a-positive NK cells, plate-coated antibody) follow.
READOUT TYPE: EC50 of NK cell activation (CD107a-positive NK cells, plate-coated antibody) (nM)

[
  {
    "BINDER": "H4-PA31 humanized antibody (antibody, human IgG1, V domains shown, not shown: constant region of human IgG1) VH: EVQLVESGGGLVQPGGSLRLSCAVSGRTFSRLPMGWFRQAPGKDREFVAAISWSSSTTYYADSVKGRFTISRDNSKNTAYLQMNSLRAEDTAVYYCAAVGGSLDYSATVVYTAARAYADWGQGTLVTVSS",
    "MEASURED RESULT": 0.38
  },
  {
    "BINDER": "H2-PC11 humanized antibody (antibody, human IgG1, V domains shown, not shown: constant region of human IgG1) VH: EVQLVESGGGLVQPGGSLRLSCAPSPYSANSFSMAWFRQAPGKGLEGIACIQAESGSTNVAPSVKGRFTISQDNSKNTLYLQMNSLRAEDTAVYYCAAFKRNVGGCELRPEHWRFWGQGTLVTVSS",
    "MEASURED RESULT": 0.87
  }
]

These entries and their values trace back to patent US20240141038A1.
